Experiment: qHTS for identification of novel therapeutic agents for treatment of microphthalmiaassociated transcription factor (MiT) renal cell carcinoma (RCC) (AID 1963991);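 also: curves scaled with 100% = DMSO viability and 0% = empty wells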
Settings: TFE3-RCC viability, CellTiter-Glo, 48 h; measured here: UOK124 Z-AUC; stronger effect = lower value
Records with an inconclusive call do not appear.
measured.endpoint: z-score
Number, no unit, nothing else.

Please review the entries below; each comes with its answer.
INSERT INTO results (molecule, measured_endpoint, observed_result) VALUES
  ('OC(CN1CCC(Cc2ccc(F)cc2)CC1)c1ccc(Cl)cc1 (stereo not given)', 'z-score', 0.291),
  ('O=c1ncn2nc(Sc3ccc(F)cc3F)ccc2c1-c1c(Cl)cccc1Cl', 'z-score', 1.12),
  ('NC(=O)c1ccc(-c2nc(-c3ccc4c(c3)OCO4)c(-c3ccccn3)[nH]2)cc1', 'z-score', 1.69),
  ('O=c1[nH]cnc2[nH]ncc12', 'z-score', 0.33);

We next turn to a different molecule, shown below.
Ask: Could you please provide reported z-score for C#Cc1cccc(Nc2ncnc3cc(OCCOC)c(OCCOC)cc23)c1 ? Thanks!
Result: -1.06
